System: Mus musculus
Assay Text: Toxicity in mouse EAC cells implanted Swiss albino mouse assessed as WBC count at 0.5 mg for 9 days (reference value: 23.96 10^3/mm3)
Assay type: organism-based
Applied Conditions: in vivo, 216 h
Consider the following compounds and their measured Activity readings.
Readout: Activity (×10³ /mm3)

compound="CC(=O)C1(C(=O)c2ccccc2)N=Nc2sc3c(c2C1=O)CCCCC3 (stereo unspecified)" readout=Activity measured_number=7.95
compound=CCOC(=O)c1c(NN=C(C(C)=O)C(C)=O)sc2c1CCC2 readout=Activity measured_number=8.76
compound=O=c1[nH]cc(F)c(=O)[nH]1 readout=Activity measured_number=8.86
compound=CCOC(=O)c1c(N/N=C(\C(C)=O)C(=O)c2ccccc2)sc2c1CCC2 readout=Activity measured_number=9.62
compound=CCOC(=O)/C(=N/Nc1sc2c(c1C(=O)OCC)CCC2)C(C)=O readout=Activity measured_number=7.56
compound=CCOC(=O)c1c(NN=C(C#N)C#N)sc2c1CCCCC2 readout=Activity measured_number=8.18

---

Tested on: Mus musculus
Assay Text: Toxicity in mouse EAC cells implanted Swiss albino mouse assessed as hemoglobin level at 0.5 mg for 9 days (reference value: 8.15 g/dl)
Assay type: organism-based
Applied Conditions: in vivo, 216 h
Consider the following compounds and their measured Activity readings.
Readout: Activity (g/dL)

compound=CCOC(=O)c1c(NN=C(C#N)C#N)sc2c1CCCCC2 measured_number=12.54
compound=CCOC(=O)/C(=N/Nc1sc2c(c1C(=O)OCC)CCCCC2)C(C)=O measured_number=13.15
compound=CCOC(=O)c1c(N/N=C(\C(C)=O)C(=O)c2ccccc2)sc2c1CCC2 measured_number=11.74
compound="O=c1[nH]cc(F)c(=O)[nH]1 [FLUOROURACIL]" measured_number=12.96
compound=CCOC(=O)c1c(NN=C(C(C)=O)C(C)=O)sc2c1CCC2 measured_number=12.23
compound=CCOC(=O)/C(=N/Nc1sc2c(c1C(=O)OCC)CCC2)C(C)=O measured_number=13.1
compound="CC(=O)C1(C(=O)c2ccccc2)N=Nc2sc3c(c2C1=O)CCCCC3 (centres undefined)" measured_number=12.92
compound=CC(=O)C1(C(C)=O)N=Nc2sc3c(c2C1=O)CCCCC3 measured_number=12.04
compound=CC1=NN=C(C)C1=NNc1sc2c(c1C(=O)NN)CCCCC2 measured_number=13.23

---

Consider the following compounds and their measured pIC50 readings.
Test system: HepG2
Assay Text: Antitumor activity against human HepG2 cells assessed as inhibition of cell viability incubated for 48 hrs by MTT assay
Assay type: functional, cell-based
Applied Conditions: HepG2, 48 h
pIC50: −log10 of the molar value.
Readout: pIC50

compound="O=c1[nH]cc(F)c(=O)[nH]1 [FLUOROURACIL]" value_qualifier== measured_number=5.16
compound=CCOC(=O)/C(=N/Nc1sc2c(c1C(=O)OCC)CCC2)C(C)=O value_qualifier== measured_number=4.79
compound=NNC(=O)c1c(NN=C2C(=O)NNC2=O)sc2c1CCCCC2 value_qualifier== measured_number=4.49
compound=CCOC(=O)c1c(N/N=C(\C(C)=O)C(=O)c2ccccc2)sc2c1CCCCC2 value_qualifier== measured_number=4.15
compound=CCOC(=O)c1c(NC(=O)CC#N)sc2c1CCCCC2 value_qualifier=< measured_number=4.00
compound=CCOC(=O)c1c(NN=C(C(C)=O)C(C)=O)sc2c1CCCCC2 value_qualifier== measured_number=4.51
compound=CCOC(=O)/C(=N/Nc1sc2c(c1C(=O)OCC)CCCCC2)C(C)=O value_qualifier== measured_number=5.04
compound=NNC(=O)c1c(NN=C2C(N)=NN=C2N)sc2c1CCCCC2 value_qualifier== measured_number=4.67
compound=CCOC(=O)C(=NNc1sc2c(c1C(=O)OCC)CCCCC2)C(=O)OCC value_qualifier== measured_number=4.12
compound=CCOC(=O)/C(C#N)=N/Nc1sc2c(c1C(=O)OCC)CCCCC2 value_qualifier=< measured_number=4.00
compound=CCOC(=O)c1c(NN=C(C(C)=O)C(C)=O)sc2c1CCC2 value_qualifier== measured_number=4.86
compound=CCOC(=O)c1c(NN=C(C#N)C#N)sc2c1CCCCC2 value_qualifier== measured_number=4.97
compound=CCOC(=O)c1c(NC(=O)CC(C)=O)sc2c1CCCCC2 value_qualifier== measured_number=4.05
compound=CC(=O)c1c(O)c2c3c(sc2[nH]c1=O)CCCCC3 value_qualifier== measured_number=4.26
compound=CC1=NN=C(C)C1=NNc1sc2c(c1C(=O)NN)CCCCC2 value_qualifier== measured_number=5.16
compound=NNC(=O)c1c(N/N=C2/C(=O)NN=C2N)sc2c1CCCCC2 value_qualifier== measured_number=4.45
compound=CCOC(=O)c1c(N/N=C2\C(=O)NN=C2C)sc2c1CCC2 value_qualifier== measured_number=4.03
compound=CC(=O)C1(C(C)=O)N=Nc2sc3c(c2C1=O)CCCCC3 value_qualifier== measured_number=4.68
compound=CCOC(=O)C(=NNc1sc2c(c1C(=O)OCC)CCC2)C(=O)OCC value_qualifier=< measured_number=4.00
compound="CC(=O)C1(C(=O)c2ccccc2)N=Nc2sc3c(c2C1=O)CCCCC3 (stereo not drawn)" value_qualifier== measured_number=4.85
compound=CCOC(=O)c1c(N/N=C(\C(C)=O)C(=O)c2ccccc2)sc2c1CCC2 value_qualifier== measured_number=4.55
compound=CCOC(=O)c1c(-n2cnnn2)sc2c1CCCCC2 value_qualifier=< measured_number=4.00
compound=N#Cc1c(O)c2c3c(sc2[nH]c1=O)CCCCC3 value_qualifier== measured_number=4.64
compound=CCOC(=O)c1c(N/N=C2\C(=O)NN=C2C)sc2c1CCCCC2 value_qualifier== measured_number=4.37
compound=CC1=NNC(=O)/C1=N\Nc1sc2c(c1C(=O)NN)CCCCC2 value_qualifier== measured_number=4.09
compound=CCOC(=O)/C(C#N)=N/Nc1sc2c(c1C(=O)OCC)CCC2 value_qualifier== measured_number=4.24
compound=Nc1nc2sc3c(c2c(=O)n1N)CCCCC3 value_qualifier== measured_number=4.08
compound="CCOC(=O)C1(C(C)=O)N=Nc2sc3c(c2C1=O)CCCCC3 (stereo not drawn)" value_qualifier== measured_number=4.04
